Cited source: patent US10377774B2

// values below are reported Body weight (g) Post-dose
# System: HepG2 xenografts
# assay_remarks: HepG2 xenografts in nude mice
# Assay type: in vivo
# condition_details: HepG2 xenograft nude mice, 1 mg/kg
property: Body weight (g) Post-dose

1. CC[C@]12C=CCN3CC[C@@]4(c5cc([C@@]6(C(=O)OC)C[C@@H]7C[C@@H](C(C)(F)F)CN(Cc8c6[nH]c6ccccc86)C7)c(OC)cc5N(C)[C@H]4[C@@](O)(C(=O)NN)[C@@H]1O)[C@@H]32 [JJ-CCFN, hydrazinolyzed vinflunine] :: 16.5 ± 0.4 g
2. CCC1=CC2CN(C1)Cc1c([nH]c3ccccc13)C(C(=O)OC)(c1cc3c(cc1OC)N(C)C1C(O)(C(=O)NNC(=O)C4CCCN4C(=O)CNC(=O)OCc4ccccc4)C(O)C4(CC)C=CCN5CCC31C54)C2 (centres unmarked) :: 22.6 ± 0.5 g

---

Property: IC50 at 72 h; scope: individual compounds
# assay_remarks: MTT cytotoxicity on normal cells, HUVEC
# condition_details: human, HUVEC (human umbilical vein endothelial cells)
property: IC50 at 72 h (nM)

1) CC[C@]1(O)C[C@@H]2CN(CCc3c([nH]c4ccccc34)[C@@](C(=O)OC)(c3cc4c(cc3OC)N(C)[C@H]3[C@@](O)(C(=O)OC)[C@H](OC(C)=O)[C@]5(CC)C=CCN6CC[C@]43[C@@H]65)C2)C1 [Vinblastine, reference compound] :: 0.76
2) CCC1=C[C@@H]2CN(C1)Cc1c([nH]c3ccccc13)[C@@](C(=O)OC)(c1cc3c(cc1OC)N(C)[C@H]1[C@@](O)(C(=O)OC)[C@H](OC(C)=O)[C@]4(CC)C=CCN5CC[C@]31[C@@H]54)C2 [Vinorelbine, reference compound] :: 1.13
3) CC[C@]1(O)C[C@@H]2CN(CCc3c([nH]c4ccccc34)[C@@](C(=O)OC)(c3cc4c(cc3OC)N(C)[C@H]3[C@@](O)(C(=O)NN)[C@H](O)[C@]5(CC)C=CCN6CC[C@]43[C@@H]65)C2)C1 [JJ-CCJ, hydrazinolyzed vinblastine] :: 36.1
4) CC[C@]1(O)C[C@H]2CN(CCc3c([nH]c4ccccc34)[C@@](C(=O)OC)(c3cc4c(cc3OC)N(C=O)[C@H]3[C@@](O)(C(=O)OC)[C@H](OC(C)=O)[C@]5(CC)C=CCN6CC[C@]43[C@@H]65)C2)C1 [Vincristine, reference compound] :: 0.42

---

# Test system: human breast cancer cell line MCF-7
# assay_remarks: MTT cell growth inhibition, MCF-7
# Assay type: cell-based
# condition_details: Homo sapiens, MCF7; MCF-7, MTT assay, 72 h; read-out: IC50, growth of tumor cell line
List of IC50 values.
property: IC50 (nM)

1) CC[C@]12C=CCN3CC[C@@]4(c5cc([C@@]6(C(=O)OC)C[C@@H]7C[C@@H](C(C)(F)F)CN(Cc8c6[nH]c6ccccc86)C7)c(OC)cc5N(C)[C@H]4[C@@](O)(C(=O)OC)[C@@H]1OC(C)=O)[C@@H]32 [Vinflunine, reference compound] :: 77
2) CCC1=C[C@@H]2CN(C1)Cc1c([nH]c3ccccc13)[C@@](C(=O)OC)(c1cc3c(cc1OC)N(C)[C@H]1[C@@](O)(C(=O)NN)[C@H](O)[C@]4(CC)C=CCN5CC[C@]31[C@@H]54)C2 [JJ-CCRB, hydrazinolyzed vinorelbine] :: 122
3) CC[C@]1(O)C[C@@H]2CN(CCc3c([nH]c4ccccc34)[C@@](C(=O)OC)(c3cc4c(cc3OC)N(C)[C@H]3[C@@](O)(C(=O)OC)[C@H](OC(C)=O)[C@]5(CC)C=CCN6CC[C@]43[C@@H]65)C2)C1 [Vinblastine, reference compound] :: 3.67
4) CCC1=C[C@@H]2CN(C1)Cc1c([nH]c3ccccc13)[C@@](C(=O)OC)(c1cc3c(cc1OC)N(C)[C@H]1[C@@](O)(C(=O)OC)[C@H](OC(C)=O)[C@]4(CC)C=CCN5CC[C@]31[C@@H]54)C2 [Vinorelbine, reference compound] :: 49.5

---

Consider the following compounds and their measured pIC50 readings.
# Tested on: human breast cancer cell line MDA-MB-231
# assay_remarks: MTT cell growth inhibition, MDA-MB-231
# Type: cell-based
# condition_details: MDA-MB-231, MTT assay, 72 h; read-out: IC50, growth of tumor cell line
pIC50: −log10 of the molar value.
property: pIC50

1) CCC12C=CCN3CCC4(c5cc(C6(C(=O)OC)CC7CC(C(C)(F)F)CN(Cc8c6[nH]c6ccccc86)C7)c(OC)cc5N(C)C4C(O)(C(=O)NNC(=O)C4CCCN4C(=O)CNC(=O)OCc4ccccc4)C1O)C32 (stereo not shown) [BX-CCFN, Z-GP-NHNH-Vinflunine] :: 6.21
2) CCC1(O)CC2CN(CCc3c([nH]c4ccccc34)C(C(=O)OC)(c3cc4c(cc3OC)N(C)C3C(O)(C(=O)NNC(=O)C5CCCN5C(=O)CNC(=O)OCc5ccccc5)C(O)C5(CC)C=CCN6CCC43C65)C2)C1 (stereo not shown) [BX-CCJ, Z-GP-NHNH-Vinblastine] :: 7.19
3) CCC1=CC2CN(C1)Cc1c([nH]c3ccccc13)C(C(=O)OC)(c1cc3c(cc1OC)N(C)C1C(O)(C(=O)NNC(=O)C4CCCN4C(=O)CNC(=O)OCc4ccccc4)C(O)C4(CC)C=CCN5CCC31C54)C2 (stereo not shown) [BX-CCRB, Z-GP-NHNH-Vinorelbine] :: 6.74
4) CCC1(O)CC2CN(CCc3c([nH]c4ccccc34)C(C(=O)OC)(c3cc4c(cc3OC)N(C=O)C3C(O)(C(=O)NNC(=O)C5CCCN5C(=O)CNC(=O)OCc5ccccc5)C(O)C5(CC)C=CCN6CCC43C65)C2)C1 (stereo not shown) [BX-CCXJ, Z-GP-NHNH-Vincristine] :: 7.24

---

# Tested on: HepG2 xenografts
# assay_remarks: HepG2 xenografts in nude mice
# Format: in vivo
# condition_details: HepG2 xenograft nude mice, before dosing
# Protocol: Experimental method: The MDA-MB-231 cells at logarithmic phase were digested and washed twice with PBS. Then, 100 μL cells (1×10^7) were inoculated subcutaneously on the backs of female BALB/nu/nu mice. […] 1 mg/kg drugs were injected intraperitoneally every two days, meanwhile body weight and tumor sizes were measured. […] Tumor volumes were measured using the following formula: V=½(ab^2), whereas a refers to the longest diameter and b is the shortest diameter. […]
Items are presented alongside their recorded Body weight (g) Pre-dose.
property: Body weight (g) Pre-dose

1) CC[C@]1(O)C[C@@H]2CN(CCc3c([nH]c4ccccc34)[C@@](C(=O)OC)(c3cc4c(cc3OC)N(C)[C@H]3[C@@](O)(C(=O)NN)[C@H](O)[C@]5(CC)C=CCN6CC[C@]43[C@@H]65)C2)C1 [JJ-CCJ, hydrazinolyzed vinblastine] :: 21.7
2) CCC1=CC2CN(C1)Cc1c([nH]c3ccccc13)C(C(=O)OC)(c1cc3c(cc1OC)N(C)C1C(O)(C(=O)NNC(=O)C4CCCN4C(=O)CNC(=O)OCc4ccccc4)C(O)C4(CC)C=CCN5CCC31C54)C2 (stereo not drawn) :: 22.2
3) CC[C@]12C=CCN3CC[C@@]4(c5cc([C@@]6(C(=O)OC)C[C@@H]7C[C@@H](C(C)(F)F)CN(Cc8c6[nH]c6ccccc86)C7)c(OC)cc5N(C)[C@H]4[C@@](O)(C(=O)NN)[C@@H]1O)[C@@H]32 [JJ-CCFN, hydrazinolyzed vinflunine] :: 22.3
4) CC[C@]1(O)C[C@@H]2CN(CCc3c([nH]c4ccccc34)[C@@](C(=O)OC)(c3cc4c(cc3OC)N(C)[C@H]3[C@@](O)(C(=O)OC)[C@H](OC(C)=O)[C@]5(CC)C=CCN6CC[C@]43[C@@H]65)C2)C1 [Vinblastine, reference compound] :: 21.9
5) CC[C@]1(O)C[C@@H]2CN(CCc3c([nH]c4ccccc34)[C@@](C(=O)OC)(c3cc4c(cc3OC)N[C@H]3[C@@](O)(C(=O)NN)[C@H](O)[C@]5(CC)C=CCN6CC[C@]43[C@@H]65)C2)C1 [JJ-CCXJ, hydrazinolyzed vincristine] :: 22.0
6) CCC1=C[C@@H]2CN(C1)Cc1c([nH]c3ccccc13)[C@@](C(=O)OC)(c1cc3c(cc1OC)N(C)[C@H]1[C@@](O)(C(=O)NN)[C@H](O)[C@]4(CC)C=CCN5CC[C@]31[C@@H]54)C2 [JJ-CCRB, hydrazinolyzed vinorelbine] :: 21.9
7) CCC1(O)CC2CN(CCc3c([nH]c4ccccc34)C(C(=O)OC)(c3cc4c(cc3OC)N(C=O)C3C(O)(C(=O)NNC(=O)C5CCCN5C(=O)CNC(=O)OCc5ccccc5)C(O)C5(CC)C=CCN6CCC43C65)C2)C1 (stereo not drawn) :: 22.2
8) CCC1(O)CC2CN(CCc3c([nH]c4ccccc34)C(C(=O)OC)(c3cc4c(cc3OC)N(C)C3C(O)(C(=O)NNC(=O)C5CCCN5C(=O)CNC(=O)OCc5ccccc5)C(O)C5(CC)C=CCN6CCC43C65)C2)C1 (stereo not drawn) :: 22.0
9) CCC12C=CCN3CCC4(c5cc(C6(C(=O)OC)CC7CC(C(C)(F)F)CN(Cc8c6[nH]c6ccccc86)C7)c(OC)cc5N(C)C4C(O)(C(=O)NNC(=O)C4CCCN4C(=O)CNC(=O)OCc4ccccc4)C1O)C32 (stereo not drawn) :: 21.9
